This section presents compounds with their documented Rf values.
assay: Rf is the resistance factor and is the ratio of the IC50 on the resistant cell line over the IC50 on the parental COR-L23/P cell line; settings: human
Respond with the number and no other words.

Here's what some known entries look like.
{"SMILES_INPUT": "CN(C)CCNC(=O)c1cccc2nc3ccc4ccccc4c3nc12", "Rf": 1.4}
{"SMILES_INPUT": "COc1cccc2c1ccc1nc3cccc(C(=O)N[C@H](C)CN(C)C)c3nc12", "Rf": 1.2}

# compound COc1ccc2c(ccc3nc4cccc(C(=O)NCCN(C)C)c4nc32)c1 ; its Rf = 1.2

Measured Rf, CN(C)CCNC(=O)c1cccc2nc3ccc4c([N+](=O)[O-])cccc4c3nc12 : 1.2

Lab note: CN(C)CCNC(=O)c1cccc2nc3ccc4c(O)cccc4c3nc12 gave Rf of 1.1

###

Recorded Rf for the following compounds
tested on: NCI-H69; experiment: Rf is the resistance factor and is the ratio of the IC50 on the resistant cell line over the IC50 on the parental H69/P cell line; format: functional, Homo sapiens

Some compounds with recorded Rf:
{"COMPOUND": "CN(C)CCNC(=O)c1cccc2nc3ccc4c(OCC(N)=O)cccc4c3nc12", "MEASUREMENT": 3.7}
{"COMPOUND": "CN(C)CCNC(=O)c1cccc2nc3ccc4c(N)cccc4c3nc12", "MEASUREMENT": 1.7}
{"COMPOUND": "CCNC(=O)Oc1cccc2c1ccc1nc3cccc(C(=O)NCCN(C)C)c3nc12", "MEASUREMENT": 1.6}
{"COMPOUND": "CN(C)CCNC(=O)c1cccc2nc3ccc4c(F)cccc4c3nc12", "MEASUREMENT": 0.7}

Now let's try a different one.
Rf reported for this compound CC(=O)Nc1cccc2c1ccc1nc3cccc(C(=O)NCCN(C)C)c3nc12 : >10.7

###

test system: NCI-H69; test: Rf is the resistance factor and is the ratio of the IC50 on the resistant cell line over the IC50 on the parental H69/P cell line; type: functional, Homo sapiens
Reported values of Rf for individual entries
Please give the numeric answer without any surrounding text.

A selection of reference data follows.
{"COMPOUND": "CCOC(=O)COc1cccc2c1ccc1nc3cccc(C(=O)NCCN(C)C)c3nc12", "SYSTEM_NAME": "NCI-H69", "Rf": 0.9}
{"COMPOUND": "CN(C)CCNC(=O)c1cccc2nc3ccc4ccc(O)cc4c3nc12", "SYSTEM_NAME": "NCI-H69", "Rf": 3.3}
{"COMPOUND": "CN(C)CCNC(=O)c1cccc2nc3ccc4c(N(C)C)cccc4c3nc12", "SYSTEM_NAME": "NCI-H69", "Rf": 1.2}

Field Rf (entry CCN(CC)CCNC(=O)c1cccc2nc3ccc4c(OC)cccc4c3nc12 ) reads 2.4

// Rf lookup, compound = CN(C)CCNC(=O)c1cccc2nc3ccc4c(NCC#N)cccc4c3nc12 , result: 1.5

Sure, the documented Rf for CN(C)CCNC(=O)c1c(O)ccc2nc3ccc4c(O)cccc4c3nc12 is 1.3

For reference, reported Rf for COc1cccc2c1ccc1nc3cccc(C(=O)N[C@@H](CN(C)C)C(C)C)c3nc12 stands at 1

Noted for COc1ccc2ccc3nc4cccc(C(=O)NCCN(C)C)c4nc3c2c1 : its Rf reads 1

Notebook: CN(C)CCNC(=O)c1cccc2nc3ccc4c(OCC#N)cccc4c3nc12 , Rf read as 0.9

// Rf lookup, compound = CNc1ccc2nc3ccc4c(OC)cccc4c3nc2c1C(=O)NCCN(C)C , result: 1.1

Record CN(C)CCNC(=O)c1cccc2nc3ccc4c(OCCO)cccc4c3nc12 , field Rf: 0.8

Kindly note the recorded Rf for CN(C)CCNC(=O)c1cccc2nc3ccc4c(O)cccc4c3nc12 , which is 1.4
